Entries and their EC50 in the pERK assay values follow.
target_system: T1, human β-klotho with a C-terminal FLAG tag, stably expressed in a clonal HEK-293 cell line (human, UniProt Q86Z14 1-1044)
T1 sequence: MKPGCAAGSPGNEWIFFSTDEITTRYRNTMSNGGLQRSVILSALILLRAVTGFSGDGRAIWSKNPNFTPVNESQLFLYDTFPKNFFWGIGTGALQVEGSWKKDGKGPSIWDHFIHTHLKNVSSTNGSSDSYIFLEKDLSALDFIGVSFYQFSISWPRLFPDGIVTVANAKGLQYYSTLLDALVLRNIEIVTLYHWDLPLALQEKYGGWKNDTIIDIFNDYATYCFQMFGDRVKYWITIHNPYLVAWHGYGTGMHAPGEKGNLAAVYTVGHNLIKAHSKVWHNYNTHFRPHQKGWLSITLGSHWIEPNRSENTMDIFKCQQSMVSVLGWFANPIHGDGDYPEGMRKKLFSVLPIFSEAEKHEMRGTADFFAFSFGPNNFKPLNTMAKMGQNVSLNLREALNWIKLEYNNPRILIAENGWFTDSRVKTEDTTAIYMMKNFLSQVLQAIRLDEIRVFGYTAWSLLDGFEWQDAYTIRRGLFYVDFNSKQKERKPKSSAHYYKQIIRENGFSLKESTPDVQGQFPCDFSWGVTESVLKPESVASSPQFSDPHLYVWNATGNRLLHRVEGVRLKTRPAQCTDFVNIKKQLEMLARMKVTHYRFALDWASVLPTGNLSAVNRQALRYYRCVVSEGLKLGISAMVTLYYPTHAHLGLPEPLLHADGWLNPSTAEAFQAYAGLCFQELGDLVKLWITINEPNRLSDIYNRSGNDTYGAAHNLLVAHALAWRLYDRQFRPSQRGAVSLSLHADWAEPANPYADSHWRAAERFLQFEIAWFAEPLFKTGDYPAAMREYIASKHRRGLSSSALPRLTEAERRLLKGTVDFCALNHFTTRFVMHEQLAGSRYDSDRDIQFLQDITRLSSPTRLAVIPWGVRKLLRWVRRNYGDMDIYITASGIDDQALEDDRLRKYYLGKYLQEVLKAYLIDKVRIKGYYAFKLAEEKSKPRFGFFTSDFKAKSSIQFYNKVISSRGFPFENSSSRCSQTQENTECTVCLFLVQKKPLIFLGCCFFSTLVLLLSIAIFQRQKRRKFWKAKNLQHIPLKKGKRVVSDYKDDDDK
measurement_protocol: cell-based or functional assay
Non-standard residues stand in square brackets, D forms with d. Phe(4-Ac) = CC(=O)c1ccc(C[C@H](N)C(=O)O)cc1
Answer format: numeric, nM implied, no suffix.

// known answers, use as guide
Pegylated Compound 6 (ligand) MHPIPDSSPLLQFGGQVRQRYLYTDDAQQTEAHLEIREDGTVGGAADQSPESLLQLKALKPGVIQILGVKTSRFLCQRPDGALYGSLHFDPEACSFRELLLEDGYNVY[Phe(4-Ac)](PEG 30 kDa)SEAHGLPLHLPGHKSRDPAPRGPARFLPLPGLPPAPPEPPGILAPQPPDVGSSDPLSMVEPSQGRSPSYAS :: 20
Pegylated Compound 2 (ligand) MHPIPDSSPLLQFGGQVRQRYLYTDDAQQTEAHLEIREDGTVGGAADQSPESLLQLKALKPGVIQILGVKTSRFLCQRPDGALYGSLHFDPEACSFRELLLEDGYNVY[Phe(4-Ac)](PEG about 30 kDa)SEAHGLPLHLGSGRGPARFLPLPGLPPAPPEPPGILAPQPPDVGSSDPLSMVEPSQGRSPSYAS :: 28
Pegylated Compound 11 (ligand) MHPIPDSSPLLQFGGQVRQRYLYTDDAQQTEAHLEIREDGTVGGAADQSPESLLQLKALKPGVIQILGVKTSRFLCQRPDGALYGSLHFDPEACSFRELLLEDGYNVY[Phe(4-Ac)](PEG about 30 kDa)SEAHGLPLHLGSGHRDPAPRGPARFLPLPGLPPAPPEPPGILAPQPPDVGSSDPLSMVEPSQGRSPSYAS :: 30
Pegylated Compound 20 (ligand) MHPIPDSSPLLQFGGQVRQRYLYTDDAQQTEAHLEIREDGTVGGAADQSPESLLQLKALKPGVIQILGVKTSRFLCQRPDGALYGSLHFDPEACSFRELLLEDGYNVY[Phe(4-Ac)](PEG about 30 kDa)SEAHGLPLHLGGHRDPAPRGPARFLPLPGLPPAPPEPPGILAPQPPDVGSSDPLSMVEPSQGRSPSYAS :: 42
Pegylated Compound 19 (ligand) MHPIPDSSPLLQFGGQVRQRYLYTDDAQQTEAHLEIREDGTVGGAADQSPESLLQLKALKPGVIQILGVKTSRFLCQRPDGALYGSLHFDPEACSFRELLLEDGYNVY[Phe(4-Ac)](PEG about 30 kDa)SEAHGLPLHLGSGPHRDPAPRGPARFLPLPGLPPAPPEPPGILAPQPPDVGSSDPLSMVEPSQGRSPSYAS :: 30

Data request, read-out EC50 in the pERK assay, for Pegylated Compound 1 (ligand) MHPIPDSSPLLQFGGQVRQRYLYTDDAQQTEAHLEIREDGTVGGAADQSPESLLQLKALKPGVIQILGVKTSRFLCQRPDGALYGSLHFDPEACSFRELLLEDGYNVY[Phe(4-Ac)](PEG 30 kDa)SEAHGLPLHLPGNKSPHRDPAPRGPARFLPLPGLPPAPPEPPGILAPQPPDVGSSDPLSMVGPSQGRSPSYAS 14
